targetOfAssay: T1, human Flag-tagged soluble TWEAK (amino acids 106-249) (human, UniProt O43508 106-249)
T1 construct: The sentence gives amino acids 106-249 without naming the entry; also called Human TWEAK; not shown: Flag tag
T1 sequence: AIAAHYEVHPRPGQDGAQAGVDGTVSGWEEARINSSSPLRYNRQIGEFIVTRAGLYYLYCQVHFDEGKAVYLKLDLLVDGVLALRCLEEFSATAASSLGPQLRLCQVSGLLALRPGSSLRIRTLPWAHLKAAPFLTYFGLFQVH
methodDescription: receptor interaction ELISA: Flag-TWEAK preincubated with antibody, then on coated human Fn14:Fc (competitor m21)
Listed here: items and their measured IC50.
parameterMeasured: IC50 (ng/mL)

binder="Humanized <TWEAK> 305- antibody 31 (antibody, V domains shown) VH: EVQLLESGGGLVQPGGSLTLSCAASGFDFSTYYMSWVRQAPGKGLEWVSTVYVRQGTTYYASWLNGRFTISRDNSKNTLYLQMNSLRAEDTAVYYCAKGGYNYDDAFVIWGQGTLVTVSS VL: AIRMTQSPSSFSASTGDRVTITCQASQNIYSNLAWYQQKPGKAPKLLIYTASYLASGVPSRFSGSGSGTDYTLTISCLQSEDFATYYCQTAYYNSRPDTVAFGGGTKVEIK" parametermeasured=IC50 resultvalue=1.7
binder="Humanized <TWEAK> 305- antibody 33 (antibody, V domains shown) VH: QVQLVQSGAEVKKPGSSVKVSCKASGFDFSTYYMSWVRQAPGQGLEWMGTVYVRQGTTYYASWLNGRVTITADESTSTAYMELSSLRSEDTAVYYCARGGYNYDDAFVIWGQGTLVTVSS VL: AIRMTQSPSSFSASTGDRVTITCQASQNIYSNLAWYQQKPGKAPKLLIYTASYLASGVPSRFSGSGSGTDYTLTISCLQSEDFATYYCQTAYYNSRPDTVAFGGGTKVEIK" parametermeasured=IC50 resultvalue=1.7
binder="Humanized <TWEAK> 305- antibody 34 (antibody, V domains shown) VH: EVQLLESGGGLVQPGGSLRLSCAASGFDFSTYYMSWVRQAPGKGLEWVSTVYVRQGTTYYASWLNGRFTISRDNSKNTLYLQMNSLRAEDTAVYYCAKGGYNYDDAFVIWGQGTLVTVSS VL: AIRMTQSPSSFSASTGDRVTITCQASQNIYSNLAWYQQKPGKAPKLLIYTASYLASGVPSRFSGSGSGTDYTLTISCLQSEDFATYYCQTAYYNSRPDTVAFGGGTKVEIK" parametermeasured=IC50 resultvalue=1.9
binder="Humanized <TWEAK> 305- antibody 28 (antibody, V domains shown) VH: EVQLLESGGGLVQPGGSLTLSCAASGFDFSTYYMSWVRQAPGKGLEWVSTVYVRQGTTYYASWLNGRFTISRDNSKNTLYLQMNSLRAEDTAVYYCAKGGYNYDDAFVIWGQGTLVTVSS VL: DIQMTQSPSSVSASVGDRVTITCQASQNIYSNLAWYQQKPGKAPKLLIYTASYLASGVPSRFSGSGSGTDYTLTISSLQPEDFATYYCQTAYYNSRPDTVAFGGGTKVEIK" parametermeasured=IC50 resultvalue=1.5
binder="Humanized <TWEAK> 305- antibody 27 (antibody, V domains shown) VH: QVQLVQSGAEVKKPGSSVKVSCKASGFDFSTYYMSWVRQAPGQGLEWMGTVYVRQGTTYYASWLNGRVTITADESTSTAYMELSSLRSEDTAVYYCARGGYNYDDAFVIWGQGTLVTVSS VL: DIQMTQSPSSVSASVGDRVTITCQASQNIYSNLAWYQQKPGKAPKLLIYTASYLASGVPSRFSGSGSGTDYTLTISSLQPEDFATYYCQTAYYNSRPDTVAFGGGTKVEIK" parametermeasured=IC50 resultvalue=2.3
binder="Humanized <TWEAK> 305- antibody 32 (antibody, V domains shown) VH: EVQLLESGGGLVQPGGSLRLSCAASGFDFSTYYMSWVRQAPGKGLEWVSTVYVRQGTTYYASWLNGRFTISRDNSKNTLDLQMNSLRAEDTAVYYCAKGGYNYDDAFVIWGQGTLVTVSS VL: DIQMTQSPSTLSASVGDRVTITCQASQNIYSNLAWYQQKPGKAPKLLIYTASYLASGVPSRFSGSGSGTEFTLTISSLQPDDFATYYCQTAYYNSRPDTVAFGGGTKVEIK" parametermeasured=IC50 resultvalue=1.5
binder="Humanized <TWEAK> 305- antibody 30 (antibody, V domains shown) VH: EVQLLESGGGLVQPGGSLRLSCAASGFDFSTYYMSWVRQAPGKGLEWVSTVYVRQGTTYYASWLNGRFTISRDNSKNTLYLQMNSLTAEDTAVYYCAKGGYNYDDAFVIWGQGTLVTVSS VL: DIQMTQSPSSVSASVGDRVTITCQASQNIYSNLAWYQQKPGKAPKLLIYTASYLASGVPSRFSGSGSGTDFTLTISSLQPEDFATYYCQTAYYNSRPDTVAFGGGTKVEIK" parametermeasured=IC50 resultvalue=2.3
binder="Humanized <TWEAK> 305- antibody 29 (antibody, V domains shown) VH: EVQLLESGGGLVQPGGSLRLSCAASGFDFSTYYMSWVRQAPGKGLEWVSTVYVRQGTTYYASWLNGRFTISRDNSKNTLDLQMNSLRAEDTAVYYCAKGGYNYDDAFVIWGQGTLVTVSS VL: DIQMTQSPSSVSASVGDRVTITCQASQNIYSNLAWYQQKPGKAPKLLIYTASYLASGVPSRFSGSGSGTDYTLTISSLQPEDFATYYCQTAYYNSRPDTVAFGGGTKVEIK" parametermeasured=IC50 resultvalue=1.8
